Target: T1, Shank1-PDZ (UniProt Q9WV48, residues 654-768) (UniProt Q9WV48 654-768)
T1 construct: Shank1 PDZ domain, UniProt Q9WV48, residues 654-768; 100% identical with the human homolog Q9Y566 residues 654-768; also called Shank-PDZ; source: production and purification by the protocol of Sánta et al. 2022
T1 sequence (looked up): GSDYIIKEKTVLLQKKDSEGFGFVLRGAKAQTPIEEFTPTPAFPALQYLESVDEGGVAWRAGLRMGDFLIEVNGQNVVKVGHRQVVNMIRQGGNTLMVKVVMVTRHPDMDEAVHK
Assay: BLI; BLItz instrument, NTA biosensors; His-tagged GKAP-Ct43 immobilised as bait at 200 nM; Shank1-PDZ at 4, 2, 1 and 0.5 uM; 50 mM NaPi pH 7.4, 20 mM NaCl, 20 mM imidazole, 0.1% BSA, 0.02% Tween20; room temperature (no temperature control); global fit, average of three independent measurements
Settings: both partners purified
Where no end group is shown, it is not given here.
RECORDED ENDPOINT: pKd
Schema: pKd number; meaning minus log10 of the concentration expressed in molar units.

Noted for GSHMSSQRQEARKRLMAAKRAASVRQNSATESAESIEIYIPEAQTRL (domain or fragment, also: 6xHis tag named, not in given chain, vector-derived residues that remain N-terminal after TEV cleavage; in the uncleaved BLI construct they follow the 6xHis tag and the TEV site; Guanylate kinase-associated protein GKAP (rGKAP1a), Rattus norvegicus, UniProt P97836, residues 950-992; 100% identical to human DLGAP1 O14490 residues 935-977; Modified pET-15b vector with 6xHis tag and TEV site; also called rGKAP1a C-terminus; source: TEV …) [GKAP-Ct43, C-terminal 43 residues of Rattus norvegicus GKAP, with 6xHis tag kept] : its pKd reads 5.51

meta.source: paper PMC12589307
